systemUnderTest: GDP-loaded KRAS (1-169) G12C, C51S, C80L, C118S (Homo sapiens, UniProt P01116, C118S/C51S/C80L/G12C)
Construct: GDP-loaded KRAS (1-169) G12C, C51S, C80L, C118S
assayNotes: Mass Spectrometry Reactivity Assay (MSRA): covalent adduct of compound and KRAS G12C, Percent Modification
Assay type: binding
recordedConditions: 5.0 μM compound, 0.017 hr
resultType: MSRA (% modification) 5.0 μM 0.017 hr (%)

The following molecules have reported results that may help.
>  <molecule>
C#CCN1C[C@@H](OC)[C@H](Oc2nc(N3CCN(C(=O)C=C)CC3)c3ccnc(Oc4c(Cl)c(F)cc5[nH]ncc45)c3n2)C1 [Example 43I]

>  <measured>
54

$$$$
>  <molecule>
C=CC(=O)N1CCN(c2nc(Oc3cccc4c3CN(C)C4)nc3c(Oc4c(Cl)c(F)cc5[nH]ncc45)nccc23)CC1 [Example 41I]

>  <measured>
70

$$$$

[A] C=CC(=O)N1CCN(c2nc(O[C@@H]3CN(C)C[C@H]3CC)nc3c(Oc4c(Cl)c(F)cc5[nH]ncc45)nc(Cl)cc23)CC1 (racemic) [Example 28G]
[B] C=CC(=O)N1CCN(c2nc(OC[C@@H]3C[C@H](OC)CN3C)nc3c(Oc4c(Cl)c(F)cc5[nH]ncc45)nc(Cl)cc23)CC1 [Example 20G]
[C] C=CC(=O)N1CCN(c2nc(O[C@@H]3CN(C)C[C@H]3OC)nc3c(Oc4c(Cl)c(F)cc5[nH]ncc45)nccc23)C[C@@H]1C [Example 37I]
[D] C=CC(=O)N1CCN(c2nc(O[C@@H]3CN(C)C[C@H]3CC)nc3c(Oc4c(Cl)c(F)cc5[nH]ncc45)nccc23)CC1 (racemic) [Example 21I]
Order by MSRA (% modification) 5.0 μM 0.017 hr, ascending. I would appreciate it if you listed the labels in the requested order.
C, B, D, A
(C: 16%, B: 26%, D: 42%, A: 60%)

----------
systemUnderTest: GDP-loaded KRAS (1-169) G12C, C51S, C80L, C118S (Homo sapiens, UniProt P01116, C118S/C51S/C80L/G12C)
Construct: GDP-loaded KRAS (1-169) G12C, C51S, C80L, C118S
assayNotes: Mass Spectrometry Reactivity Assay (MSRA): covalent adduct of compound and KRAS G12C, Percent Modification
Assay type: binding
recordedConditions: 10 μM compound, 0.25 hr
resultType: MSRA (% modification) 10 μM 0.25 hr (%)

>  <compound>
C=CC(=O)N1CCN(c2nc(OC[C@H]3CCOC3)nc3c(Oc4c(Cl)c(F)cc5[nH]ncc45)nccc23)CC1 [Example 04H]

>  <units>
%

>  <measured>
73

$$$$

[1] C=CC(=O)N1CCN(c2nc(OC[C@H]3CCCN3C)nc3c(Oc4c(C)c(Cl)cc5[nH]ncc45)cccc23)CC1 [Example 21E]
[2] C=CC(=O)N1CCN(c2nc(OC[C@@H]3CCCN3C)nc3c(Oc4c(C)ccc5[nH]ncc45)nccc23)CC1 [Example 08B]
Compare reported MSRA (% modification) 10 μM 0.25 hr values for 1 and 2 . Which is lower? In your reply, give the label of the chosen option.
2

----------
systemUnderTest: KRAS G12C (Homo sapiens, UniProt P01116, G12C)
assayNotes: Cell Activity Assay: accumulation of GDP-bound KRAS G12C in MIAPaCa-2 cells (Raf-1 RBD capture, MSD readout)
Type: cell-based
Design: endogenous in cells; host or cells: MIAPaCa-2
recordedConditions: 6 hours, assay limit is 30.00
resultType: IC50 (µM)

The following compounds have reported results that may help.
>  <compound>
C=CC(=O)N1CCN(c2nc(O[C@@H]3CN(C)C[C@H]3C)nc3c(Oc4c(Cl)c(Cl)cc5[nH]ncc45)nccc23)CC1 (racemic) [Example 51I]

>  <units>
µM

>  <IC50>
0.031

$$$$
>  <compound>
C=CC(=O)N1CCN(c2nc(OC[C@@H]3CC(F)(F)CN3C)nc3c(Oc4c(C)ccc5[nH]ncc45)nccc23)CC1 [Example 07B]

>  <units>
µM

>  <IC50>
6.18

$$$$
>  <compound>
C=CC(=O)N1CCN(c2ncnc3c(Oc4c(Cl)c(F)cc5[nH]ncc45)nccc23)C[C@H]1C [Example 25A]

>  <units>
µM

>  <IC50>
8.89

$$$$

[P] C#CCN1C[C@@H](OC)[C@H](Oc2nc(N3CCN(C(=O)C=C)CC3)c3cc(Cl)nc(Oc4c(Cl)c(F)cc5[nH]ncc45)c3n2)C1 [Example 40G]
[Q] C=CC(=O)N1CCN(c2ncnc3c(Oc4c(Cl)c(F)cc5[nH]ncc45)nc(Cl)cc23)[C@@H](C)C1 [Example 39A]
[R] C=CC(=O)N1CCN(c2ncnc3c(Oc4c(C)ccc5[nH]ncc45)nccc23)[C@@H](C)C1 [Example 10A]
[S] C=CC(=O)N1CCN(c2nc(N3CC(N(C)C)C3)nc3c(Oc4c(Cl)c(F)cc5[nH]ncc45)nc(Cl)cc23)CC1 [Example 05G]
Order by IC50, ascending. I would appreciate it if you listed the labels in the requested order.
P, S, Q, R

----------
systemUnderTest: GDP-loaded KRAS (1-169) G12C, C51S, C80L, C118S (Homo sapiens, UniProt P01116, C118S/C51S/C80L/G12C)
Construct: GDP-loaded KRAS (1-169) G12C, C51S, C80L, C118S
assayNotes: Mass Spectrometry Reactivity Assay (MSRA): covalent adduct of compound and KRAS G12C, Percent Modification
Format: binding
recordedConditions: 5.0 μM compound, 0.017 hr
resultType: MSRA (% modification) 5.0 μM 0.017 hr (%)

The following compounds have reported results that may help.
>  <compound>
C=CC(=O)N1CCN(c2nc(Oc3cccc4c3CCN(C(C)C)C4)nc3c(Oc4c(C)ccc5[nH]ncc45)nccc23)CC1 [Example 30I]

>  <units>
%

>  <MSRA (% modification) 5.0 μM 0.017 hr>
45

$$$$
>  <compound>
C=CC(=O)N1CCN(c2nc(Oc3cccc4c3CCN(CC)C4)nc3c(Oc4c(Cl)c(F)cc5[nH]ncc45)nccc23)CC1 [Example 17I]

>  <units>
%

>  <MSRA (% modification) 5.0 μM 0.017 hr>
82

$$$$
>  <compound>
C=CC(=O)N1CCN(c2nc(O[C@@H]3CN(C)C[C@H]3OCC(F)F)nc3c(Oc4c(Cl)c(F)cc5[nH]ncc45)nccc23)CC1 (racemic) [Example 32I]

>  <units>
%

>  <MSRA (% modification) 5.0 μM 0.017 hr>
19

$$$$
>  <compound>
C=CC(=O)N1CCN(c2nc(O[C@@H]3CN(C)C[C@H]3C(F)F)nc3c(Oc4c(Cl)c(F)cc5[nH]ncc45)nccc23)CC1 (racemic) [Example 36I]

>  <units>
%

>  <MSRA (% modification) 5.0 μM 0.017 hr>
57

$$$$
>  <compound>
C=CC(=O)N1CCN(c2nc(O[C@@H]3CN(C)C[C@H]3C)nc3c(Oc4c(Cl)c(F)cc5[nH]ncc45)nc(Cl)cc23)CC1 (racemic) [Example 32G]

>  <units>
%

>  <MSRA (% modification) 5.0 μM 0.017 hr>
44

$$$$

[1] C=CC(=O)N1CCN(c2nc(O[C@@H]3CN(C)C[C@@H]3OC)nc3c(Oc4c(Cl)c(F)cc5[nH]ncc45)nc(Cl)cc23)CC1 (racemic) [Example 26G]
[2] C=CC(=O)N1CCN(c2nc(O[C@@H]3CCN(CCOC)C[C@H]3C)nc3c(Oc4c(Cl)c(F)cc5[nH]ncc45)nc(Cl)cc23)CC1 (racemic) [Example 33G]
[3] [2H]C([2H])([2H])N1C[C@@H](OC)[C@H](Oc2nc(N3CCN(C(=O)C=C)CC3)c3cc(Cl)nc(Oc4c(Cl)c(F)cc5[nH]ncc45)c3n2)C1 [Example 41G]
[4] C=CC(=O)N1CCN(c2nc(O[C@@H]3CN(C)C[C@H]3C(F)(F)F)nc3c(Oc4c(Cl)c(F)cc5[nH]ncc45)nccc23)CC1 [Example 57I]
[5] C=CC(=O)N1CCN(c2nc(O[C@@H]3CN(C)C[C@H]3C(F)F)nc3c(Oc4c(Cl)c(F)cc5[nH]ncc45)nccc23)CC1 (single isomer, unassigned) [Example 59I]
Order by MSRA (% modification) 5.0 μM 0.017 hr, ascending. I would appreciate it if you listed the labels in the requested order.
5, 4, 1, 2, 3
(5: 13%, 4: 22%, 1: 35%, 2: 51%, 3: 83%)

----------
systemUnderTest: GDP-loaded KRAS (1-169) G12C, C51S, C80L, C118S (Homo sapiens, UniProt P01116, C118S/C51S/C80L/G12C)
Construct: GDP-loaded KRAS (1-169) G12C, C51S, C80L, C118S
assayNotes: Mass Spectrometry Reactivity Assay (MSRA): covalent adduct of compound and KRAS G12C, Percent Modification
Assay type: binding
recordedConditions: 5.0 μM compound, 0.25 hr
resultType: MSRA (% modification) 5.0 μM 0.25 hr (%)

>  <compound>
C=CC(=O)N1CCN(c2nc(OCC3(F)CCN(C)CC3)nc3c(Oc4c(Cl)c(F)cc5[nH]ncc45)nc(Cl)cc23)CC1 [Example 15G]

>  <resultType>
MSRA (% modification) 5.0 μM 0.25 hr

>  <measured>
80

$$$$

[a] C=CC(=O)N1CCN(c2nc(OC[C@@H]3CCCN3C)nc3c(Oc4c(Cl)c(F)cc5[nH]ncc45)nccc23)CC1 [Example 01H]
[b] C=CC(=O)N1CCN(c2ncnc3c(Oc4c(C)c(Cl)cc5[nH]ncc45)nccc23)CC1 [Example 14A]
Select the item with the higher value of MSRA (% modification) 5.0 μM 0.25 hr from the options a and b listed. In your reply, give the label of the chosen option.
a
